# measurement.notes: Toxicokinetic evaluation in rats
# assay.conditions: male, Crl:CD(SD)IGS BR, rat, in vivo, po, 25 mg/kg/day, Cmax
measured.property: Cmax (ng/mL)
The reply should be a number in ng/mL, with the unit left off.

Ask: # get_value(readout='Cmax', item= Clc1ccc([C@]23CNCC2C3)cc1Cl (single isomer, unassigned; (+)) )
Result: 2360

* * *

# measurement.notes: Toxicokinetic evaluation in dogs
# Assay type: in vivo
# assay.conditions: male, beagle, dog, in vivo, po, 6 mg/kg/day, male dogs, 6 mg/kg/day oral, Day 0
measured.property: Tmax (h)
The reply should be a number in h, with the unit left off.

Ask: # get_value(readout='Tmax', item= Clc1ccc([C@]23CNCC2C3)cc1Cl (single isomer, unassigned; (+)) )
Result: 1
